# ASSAY TEXT: GI Exposure PK in Mice
# Format: in vivo
# CONDITION SET: mouse; male BalbC mice, oral dose of 5 mg/kg, Jejunum

>  <SMILES STRING>
Cc1nnc(-c2cnc3[nH]ccc3c2N[C@H]2C[C@@H](NS(=O)(=O)c3cccc(C#N)c3)C2)s1

>  <Tmax, min>
30

$$$$

* * *

# ASSAY TEXT: GI Exposure PK in Mice
# Type: in vivo
# CONDITION SET: mouse, portal vein plasma; male BalbC mice, oral dose of 5 mg/kg, Portal plasma
MEASURE NAME: Tmax (h)

>  <COMPOUND>
Cc1nnc(-c2cnc3[nH]ccc3c2N[C@H]2C[C@@H](NS(=O)(=O)c3cccc(C#N)c3)C2)s1 [Example 75]

>  <READOUT UNITS>
h

>  <READOUT VALUE>
2

$$$$

* * *

# ASSAY TEXT: GI Exposure PK in Mice
# Assay type: in vivo
# CONDITION SET: mouse; male BalbC mice, oral dose of 5 mg/kg, Duodenum

>  <SMILES STRING>
Cc1nnc(-c2cnc3[nH]ccc3c2N[C@H]2C[C@@H](NS(=O)(=O)c3cccc(C#N)c3)C2)s1

>  <Tmax, min>
30

$$$$

* * *

A set of compounds tested on JAK2 (Homo sapiens, UniProt O60674), with measured pIC50:
pIC50: −log10 of the molar value.

>  <SMILES STRING>
CCOC(=O)c1cnc2[nH]ccc2c1N[C@H]1C[C@H](NS(=O)(=O)c2cc(C#N)ccn2)C1

>  <pIC50>
7.00 to 8.00

$$$$
>  <SMILES STRING>
CCCS(=O)(=O)N[C@H]1C[C@@H](Nc2c(-c3cc(C(=O)NC)ccn3)cnc3[nH]ccc23)C1

>  <pIC50>
6.00 to 7.00

$$$$
>  <SMILES STRING>
Cc1cnc(-c2cnc3[nH]ccc3c2N[C@H]2C[C@@H](NS(=O)(=O)c3cccc(C#N)c3)C2)s1

>  <pIC50>
7.00 to 8.00

$$$$
>  <SMILES STRING>
N#Cc1cccc(S(=O)(=O)N[C@H]2C[C@@H](Nc3c(-c4nccs4)cnc4[nH]ccc34)C2)c1

>  <pIC50>
≥ 8.00

$$$$

* * *

# SYSTEM TESTED: JAK1 (Homo sapiens, UniProt P23458)
# Construct: purchased Thermo Fisher Scientific (SelectScreen service)
# Sequence (P23458 whole entry): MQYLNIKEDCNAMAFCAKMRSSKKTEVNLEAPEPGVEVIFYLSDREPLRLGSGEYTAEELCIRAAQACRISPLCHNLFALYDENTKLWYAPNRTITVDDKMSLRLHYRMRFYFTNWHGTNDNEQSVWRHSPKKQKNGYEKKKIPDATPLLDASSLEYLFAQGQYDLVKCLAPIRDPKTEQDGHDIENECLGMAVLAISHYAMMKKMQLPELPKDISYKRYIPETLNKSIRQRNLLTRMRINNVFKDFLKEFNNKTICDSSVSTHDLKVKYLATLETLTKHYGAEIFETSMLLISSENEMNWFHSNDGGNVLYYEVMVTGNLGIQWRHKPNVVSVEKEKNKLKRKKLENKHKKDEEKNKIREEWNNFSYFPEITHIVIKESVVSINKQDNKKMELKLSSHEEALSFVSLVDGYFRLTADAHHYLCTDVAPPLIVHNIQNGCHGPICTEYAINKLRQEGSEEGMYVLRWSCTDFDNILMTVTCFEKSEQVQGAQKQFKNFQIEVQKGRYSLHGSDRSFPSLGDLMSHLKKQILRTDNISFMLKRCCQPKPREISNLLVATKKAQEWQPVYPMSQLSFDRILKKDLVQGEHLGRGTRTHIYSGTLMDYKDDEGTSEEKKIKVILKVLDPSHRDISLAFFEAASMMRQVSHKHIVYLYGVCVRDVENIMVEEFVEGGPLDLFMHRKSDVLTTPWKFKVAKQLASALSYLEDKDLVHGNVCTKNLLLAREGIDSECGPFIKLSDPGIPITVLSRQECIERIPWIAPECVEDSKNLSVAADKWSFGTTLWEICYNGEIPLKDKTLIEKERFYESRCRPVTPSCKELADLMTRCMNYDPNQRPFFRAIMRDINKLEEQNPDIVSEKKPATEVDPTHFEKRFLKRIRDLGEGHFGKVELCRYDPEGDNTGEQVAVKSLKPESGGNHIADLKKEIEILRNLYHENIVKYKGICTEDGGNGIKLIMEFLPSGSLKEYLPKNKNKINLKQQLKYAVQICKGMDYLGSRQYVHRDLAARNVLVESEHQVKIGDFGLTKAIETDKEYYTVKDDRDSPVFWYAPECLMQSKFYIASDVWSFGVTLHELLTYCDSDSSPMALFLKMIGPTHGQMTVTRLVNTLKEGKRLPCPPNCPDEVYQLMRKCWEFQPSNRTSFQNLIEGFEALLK
# ASSAY TEXT: JAK1 enzyme activity assay (Thermo Fisher Selectscreen, Z-lyte)
# Format: biochemical
# CONDITION SET: read-out: JAK1 Inhibition IC50
pIC50: −log10 of the molar value.
MEASURE NAME: pIC50

>  <SMILES STRING>
Cc1nnc(-c2cnc3[nH]ccc3c2N[C@H]2C[C@@H](NS(=O)(=O)c3cc(C#N)ccn3)C2)o1

>  <SYSTEM TESTED>
JAK1 (Homo sapiens, UniProt P23458)

>  <READOUT VALUE>
6.00 to 7.00

$$$$
>  <SMILES STRING>
CCCS(=O)(=O)N[C@H]1C[C@@H](Nc2c(-c3nnc(C)o3)cnc3[nH]ccc23)C1

>  <SYSTEM TESTED>
JAK1 (Homo sapiens, UniProt P23458)

>  <READOUT VALUE>
7.00 to 8.00

$$$$
>  <SMILES STRING>
Cc1nccc(-c2cnc3[nH]ccc3c2N[C@H]2C[C@@H](NS(=O)(=O)c3cccc(C#N)c3)C2)n1

>  <SYSTEM TESTED>
JAK1 (Homo sapiens, UniProt P23458)

>  <READOUT VALUE>
≥ 8.00

$$$$

These measurements were taken from patent US20220235043A1.
